# TESTED SYSTEM: Proto-oncogene tyrosine-protein kinase receptor Ret (Homo sapiens); further: in the data inactive means no Kd found up to 30 µM
# Sequence (P07949 whole entry): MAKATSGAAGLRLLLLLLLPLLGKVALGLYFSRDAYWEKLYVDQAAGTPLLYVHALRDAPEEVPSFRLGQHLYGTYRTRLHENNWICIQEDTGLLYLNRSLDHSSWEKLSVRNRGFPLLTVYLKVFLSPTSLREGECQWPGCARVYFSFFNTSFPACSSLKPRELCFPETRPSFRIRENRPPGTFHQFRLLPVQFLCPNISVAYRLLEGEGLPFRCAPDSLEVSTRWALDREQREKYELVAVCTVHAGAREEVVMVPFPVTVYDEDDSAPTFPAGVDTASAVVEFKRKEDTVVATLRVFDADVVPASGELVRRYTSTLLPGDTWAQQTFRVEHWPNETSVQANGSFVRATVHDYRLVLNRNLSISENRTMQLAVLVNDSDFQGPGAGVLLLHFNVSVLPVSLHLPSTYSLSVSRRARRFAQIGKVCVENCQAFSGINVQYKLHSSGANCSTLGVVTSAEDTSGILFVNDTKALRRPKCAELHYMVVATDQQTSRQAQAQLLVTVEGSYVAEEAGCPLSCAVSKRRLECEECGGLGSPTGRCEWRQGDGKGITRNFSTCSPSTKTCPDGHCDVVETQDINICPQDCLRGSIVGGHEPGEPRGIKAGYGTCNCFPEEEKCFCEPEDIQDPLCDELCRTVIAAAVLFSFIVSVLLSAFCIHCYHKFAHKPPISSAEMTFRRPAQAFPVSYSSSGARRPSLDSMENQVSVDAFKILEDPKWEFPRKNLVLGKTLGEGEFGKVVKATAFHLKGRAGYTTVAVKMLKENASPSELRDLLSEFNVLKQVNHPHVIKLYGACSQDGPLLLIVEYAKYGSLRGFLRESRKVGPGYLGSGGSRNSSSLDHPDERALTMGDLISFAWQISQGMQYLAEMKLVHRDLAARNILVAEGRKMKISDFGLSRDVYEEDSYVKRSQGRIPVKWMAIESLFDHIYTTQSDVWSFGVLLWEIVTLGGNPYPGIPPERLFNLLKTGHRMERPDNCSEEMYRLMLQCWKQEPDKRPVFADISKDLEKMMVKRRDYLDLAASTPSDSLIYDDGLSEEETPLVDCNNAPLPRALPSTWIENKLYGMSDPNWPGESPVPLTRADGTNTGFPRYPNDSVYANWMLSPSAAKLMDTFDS
Activity calls are given as the source filed them.
Mark one answer only. Choices: t = active, f = inactive

For CCn1c(=O)c(-c2cc[nH]n2)cc2c(C)nc(N)nc21 , which call appears in the assay record? f

Repeat with Cc1ccc(S(=O)(=O)Nc2nc3ccccc3nc2Nc2ccc3nsnc3c2)cc1 f

Repeat with Cc1cc(-c2cc(O)ccc2Cl)cc2nnc(Nc3ccc(OCCN4CCCC4)cc3)nc12 t

Repeat with CC(=O)Nc1cccc(-n2c(=O)n(C3CC3)c(=O)c3c(Nc4ccc(I)cc4F)n(C)c(=O)c(C)c32)c1 f

Repeat with CC[C@@H]1C(=O)N(C)c2cnc(Nc3ccc(C(=O)N[C@H]4CC[C@H](N5CCN(CC6CC6)CC5)CC4)cc3OC)nc2N1C(C)C f

Repeat with COc1cc(OC)c(/C=C/S(=O)(=O)Cc2ccc(OC)c(NCC(=O)O)c2)c(OC)c1 f

Repeat with CN(C)C(=O)c1cc2cnc(Nc3ccc(N4CCNCC4)cn3)nc2n1C1CCCC1 f

Repeat with CN1N=C(N)c2cn([C@@H]3O[C@H](COP(=O)(O)O)[C@@H](O)[C@H]3O)c3ncnc1c23 [TRICIRIBINE PHOSPHATE] f

----------
# TESTED SYSTEM: Dual specificity protein kinase CLK2 (Homo sapiens, UniProt P49760); further: in the data inactive means no Kd found up to 30 µM
# Sequence (P49760 whole entry): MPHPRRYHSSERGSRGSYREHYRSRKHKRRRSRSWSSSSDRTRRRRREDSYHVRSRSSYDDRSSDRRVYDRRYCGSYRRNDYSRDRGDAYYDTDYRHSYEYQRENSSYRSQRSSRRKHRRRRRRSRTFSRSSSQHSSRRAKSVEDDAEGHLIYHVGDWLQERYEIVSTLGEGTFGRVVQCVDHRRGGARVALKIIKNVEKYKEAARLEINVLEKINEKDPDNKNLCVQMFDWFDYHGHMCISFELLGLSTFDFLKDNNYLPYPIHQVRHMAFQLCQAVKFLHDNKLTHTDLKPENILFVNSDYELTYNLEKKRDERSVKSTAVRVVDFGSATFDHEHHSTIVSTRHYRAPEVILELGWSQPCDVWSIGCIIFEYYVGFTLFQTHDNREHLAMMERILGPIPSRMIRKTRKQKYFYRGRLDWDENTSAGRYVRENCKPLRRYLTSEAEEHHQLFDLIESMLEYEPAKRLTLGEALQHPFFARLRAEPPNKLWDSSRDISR
Activity calls are given as the source filed them.
Mark one answer only. Choices: T = active, F = inactive

For COC(=O)N[C@@H](C)CNc1nccc(-c2cn(C(C)C)nc2-c2cc(Cl)cc(NS(C)(=O)=O)c2F)n1 , which call appears in the assay record? F

Repeat with CN1CCC(CNc2ccc3ncc(-c4cccc(OC(F)(F)F)c4)n3n2)CC1 F

Repeat with O=C(Nc1ccc(-c2ccnc(Nc3ccc(N4CCOCC4)cc3)n2)cc1)C1CCCN1 (stereo unspecified) F

Repeat with Cc1ccc(NC(=O)c2ccc(CN3CC[C@H](N(C)C)C3)c(C(F)(F)F)c2)cc1Nc1nccc(-c2cncnc2)n1 F

Repeat with COc1cc(OC)c(/C=C/S(=O)(=O)Cc2ccc(OC)c(NCC(=O)O)c2)c(OC)c1 F

Repeat with Cc1cc(-c2cc(O)ccc2Cl)cc2nnc(Nc3ccc(OCCN4CCCC4)cc3)nc12 F

Repeat with O=C(c1ccc(F)c(F)c1Nc1ccc(I)cc1F)N1CC(O)([C@@H]2CCCCN2)C1 F

Repeat with Cc1ccc(S(=O)(=O)Nc2nc3ccccc3nc2Nc2ccc3nsnc3c2)cc1 F

Repeat with COC(=O)[C@@]1(O)C[C@H]2O[C@]1(C)n1c3ccccc3c3c4c(c5c6ccccc6n2c5c31)C(=O)NC4 [K-252A] T

Repeat with COc1ccc(-c2ccc3c(N4CCOC[C@@H]4C)nc(N4CCOC[C@@H]4C)nc3n2)cc1CO F

Repeat with Cc1c(F)cc(C(=O)NC2CC2)cc1-c1ccc(C(=O)NCC(C)(C)C)cn1 F

Repeat with CNS(=O)(=O)Nc1nccc(Cc2c(C)c3ccc(Oc4ncccn4)cc3oc2=O)c1F F

Repeat with CCCS(=O)(=O)Nc1ccc(F)c(C(=O)c2c[nH]c3ncc(-c4ccc(Cl)cc4)cc23)c1F F

Repeat with CCN1CCN(Cc2ccc(-c3cc4c(N[C@H](C)c5ccccc5)ncnc4[nH]3)cc2)CC1 F

Repeat with C[C@@H]1CN(Cc2ccc(F)cc2)[C@@H](C)CN1C(=O)c1cc2c(C(=O)C(=O)N(C)C)cn(C)c2cc1Cl F

Repeat with CC(=O)Nc1cccc(-n2c(=O)n(C3CC3)c(=O)c3c(Nc4ccc(I)cc4F)n(C)c(=O)c(C)c32)c1 F

----------
# TESTED SYSTEM: Glycogen phosphorylase, liver form (Homo sapiens, UniProt P06737); further: in the data inactive means no Kd found up to 30 µM
# Sequence (P06737 whole entry): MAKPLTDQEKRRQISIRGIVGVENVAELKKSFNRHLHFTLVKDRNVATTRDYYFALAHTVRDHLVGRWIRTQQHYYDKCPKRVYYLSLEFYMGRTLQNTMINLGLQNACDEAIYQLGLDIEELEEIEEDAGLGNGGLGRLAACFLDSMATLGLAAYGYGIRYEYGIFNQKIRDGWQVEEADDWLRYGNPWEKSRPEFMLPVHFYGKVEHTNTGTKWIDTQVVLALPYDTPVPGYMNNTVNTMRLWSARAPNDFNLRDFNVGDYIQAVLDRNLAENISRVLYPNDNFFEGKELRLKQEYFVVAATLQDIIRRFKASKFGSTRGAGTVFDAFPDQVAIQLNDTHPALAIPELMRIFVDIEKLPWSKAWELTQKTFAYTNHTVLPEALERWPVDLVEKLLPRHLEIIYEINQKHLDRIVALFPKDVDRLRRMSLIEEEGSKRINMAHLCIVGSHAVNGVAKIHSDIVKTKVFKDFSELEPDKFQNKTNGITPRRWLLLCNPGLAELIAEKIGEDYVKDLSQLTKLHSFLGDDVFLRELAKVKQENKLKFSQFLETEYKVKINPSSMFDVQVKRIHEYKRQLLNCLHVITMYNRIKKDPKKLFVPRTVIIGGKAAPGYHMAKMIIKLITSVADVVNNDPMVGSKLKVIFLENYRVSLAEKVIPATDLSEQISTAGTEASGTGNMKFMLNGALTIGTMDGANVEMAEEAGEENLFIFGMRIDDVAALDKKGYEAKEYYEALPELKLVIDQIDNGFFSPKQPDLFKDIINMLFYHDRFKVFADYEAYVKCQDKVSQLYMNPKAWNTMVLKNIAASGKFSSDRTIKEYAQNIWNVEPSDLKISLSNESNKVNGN
# Assay type: subcellular, K-562, COLO 205, SK-N-BE(2) and MV-4-11, Cell lysate
# EXPERIMENTAL SETUP: read-out: Kd apparent
Activity calls are given as the source filed them.
Would you kindly list Kd for each of these compounds?

Please give the measured Kd for this compound: CNC(=O)c1ccc(-c2cnc3ncc(Cc4ccc5ncccc5c4)n3n2)cc1F [CAPMATINIB] > 30 µM (inactive)

Repeat with Cc1cc2c(F)c(Oc3ncnn4cc(OC[C@@H](C)OC(=O)[C@H](C)N)c(C)c34)ccc2[nH]1 [BRIVANIB ALANINATE] > 30 µM (inactive)

Repeat with CCc1cnn2c(NCc3ccc[n+]([O-])c3)cc(N3CCCC[C@H]3CCO)nc12 [DINACICLIB] > 30 µM (inactive)

Repeat with CCCS(=O)(=O)Nc1ccc(F)c(C(=O)c2c[nH]c3ncc(-c4ccc(Cl)cc4)cc23)c1F [VEMURAFENIB] > 30 µM (inactive)

Repeat with COc1cc2nccc(Oc3ccc(NC(=O)Nc4cc(C)on4)c(Cl)c3)c2cc1OC [TIVOZANIB] > 30 µM (inactive)

Repeat with CC[C@H](Nc1ncnc2[nH]cnc12)c1nc2cccc(F)c2c(=O)n1-c1ccccc1 [IDELALISIB] > 30 µM (inactive)

Repeat with CNC(=O)c1cc(Oc2ccc(NC(=O)Nc3ccc(Cl)c(C(F)(F)F)c3)c(F)c2)ccn1 [REGORAFENIB] > 30 µM (inactive)

Repeat with C[C@@H]1CN(Cc2ccc(F)cc2)[C@@H](C)CN1C(=O)c1cc2c(C(=O)C(=O)N(C)C)cn(C)c2cc1Cl [TALMAPIMOD] > 30 µM (inactive)

----------
# TESTED SYSTEM: Breakpoint cluster region protein (Homo sapiens); further: in the data inactive means no Kd found up to 30 µM
# Sequence (P11274 whole entry): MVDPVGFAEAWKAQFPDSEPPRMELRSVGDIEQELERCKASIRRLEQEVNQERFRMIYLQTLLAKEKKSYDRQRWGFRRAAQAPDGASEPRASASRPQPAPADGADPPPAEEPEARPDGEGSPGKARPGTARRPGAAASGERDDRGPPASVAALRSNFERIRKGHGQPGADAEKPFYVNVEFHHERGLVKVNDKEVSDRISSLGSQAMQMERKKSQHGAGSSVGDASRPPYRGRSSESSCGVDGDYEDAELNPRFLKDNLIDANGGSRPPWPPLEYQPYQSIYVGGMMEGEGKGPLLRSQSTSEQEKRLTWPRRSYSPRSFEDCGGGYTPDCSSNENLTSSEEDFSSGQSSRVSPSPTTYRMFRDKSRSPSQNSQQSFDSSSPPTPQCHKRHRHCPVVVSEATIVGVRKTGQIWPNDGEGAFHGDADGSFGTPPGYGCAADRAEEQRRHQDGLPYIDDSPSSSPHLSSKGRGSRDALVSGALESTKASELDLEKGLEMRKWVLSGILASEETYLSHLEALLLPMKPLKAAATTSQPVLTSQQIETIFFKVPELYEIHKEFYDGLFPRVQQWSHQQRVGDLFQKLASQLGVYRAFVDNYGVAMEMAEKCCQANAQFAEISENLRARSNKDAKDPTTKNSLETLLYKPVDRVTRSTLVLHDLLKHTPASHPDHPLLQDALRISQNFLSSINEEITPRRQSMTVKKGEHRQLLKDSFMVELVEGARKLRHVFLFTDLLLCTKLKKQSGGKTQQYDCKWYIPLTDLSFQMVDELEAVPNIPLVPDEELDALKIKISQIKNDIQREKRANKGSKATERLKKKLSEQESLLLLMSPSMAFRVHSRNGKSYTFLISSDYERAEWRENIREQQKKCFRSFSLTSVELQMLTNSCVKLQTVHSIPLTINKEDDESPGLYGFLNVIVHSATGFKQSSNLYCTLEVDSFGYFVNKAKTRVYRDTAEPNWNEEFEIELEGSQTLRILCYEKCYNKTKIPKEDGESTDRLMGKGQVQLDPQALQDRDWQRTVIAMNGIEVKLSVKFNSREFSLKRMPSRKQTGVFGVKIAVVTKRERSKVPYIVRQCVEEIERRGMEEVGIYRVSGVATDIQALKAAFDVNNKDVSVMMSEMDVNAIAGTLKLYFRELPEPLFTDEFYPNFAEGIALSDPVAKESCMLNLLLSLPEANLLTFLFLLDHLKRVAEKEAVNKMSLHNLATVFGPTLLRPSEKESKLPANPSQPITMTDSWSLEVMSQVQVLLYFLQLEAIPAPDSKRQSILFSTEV
The source made the active and inactive calls.
Mark one answer only. Choices: T (active), F (inactive)

For CCn1c(-c2nonc2N)nc2c(C#CC(C)(C)O)ncc(OC[C@H]3CCCNC3)c21 , which call appears in the assay record? F

Repeat with COc1ccc(-c2ccc3c(N4CCOC[C@@H]4C)nc(N4CCOC[C@@H]4C)nc3n2)cc1CO F

Repeat with CN(C)C(=O)c1cc2cnc(Nc3ccc(N4CCNCC4)cn3)nc2n1C1CCCC1 F

Repeat with CNC(=O)CN1CCC(Oc2cc3c(Nc4cccc(Cl)c4F)ncnc3cc2OC)CC1 F

Repeat with O=c1sn(-c2cccc3ccccc23)c(=O)n1Cc1ccccc1 F

Repeat with Cc1ccc(S(=O)(=O)Nc2nc3ccccc3nc2Nc2ccc3nsnc3c2)cc1 F

Repeat with CNC(=O)c1cc(Oc2ccc(NC(=O)Nc3ccc(Cl)c(C(F)(F)F)c3)c(F)c2)ccn1 T

Repeat with O=C1NC(=O)/C(=C/c2ccc3nccc(-c4ccncc4)c3c2)S1 F

----------
# TESTED SYSTEM: Ferrochelatase, mitochondrial (Homo sapiens, UniProt P22830); further: in the data inactive means no Kd found up to 30 µM
# Sequence (P22830 whole entry): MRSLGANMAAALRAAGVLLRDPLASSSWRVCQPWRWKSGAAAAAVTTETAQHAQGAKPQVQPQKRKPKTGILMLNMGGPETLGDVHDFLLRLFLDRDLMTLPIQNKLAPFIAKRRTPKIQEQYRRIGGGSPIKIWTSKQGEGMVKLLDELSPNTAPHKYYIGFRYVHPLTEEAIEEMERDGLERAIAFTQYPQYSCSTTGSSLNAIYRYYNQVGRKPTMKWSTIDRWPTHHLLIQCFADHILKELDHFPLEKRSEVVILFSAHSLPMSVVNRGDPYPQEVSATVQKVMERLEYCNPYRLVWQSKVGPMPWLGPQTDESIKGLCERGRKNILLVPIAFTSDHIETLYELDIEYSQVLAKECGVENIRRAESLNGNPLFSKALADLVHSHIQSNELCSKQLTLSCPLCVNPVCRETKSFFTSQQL
Activity calls are given as the source filed them.
Mark one answer only. Choices: yes (1) for active, no (0) for inactive

For Cc1nc(N)sc1-c1ccnc(Nc2ccc(N3CCOCC3)cc2)n1 [CYC-116] , which call appears in the assay record? yes (1)

Repeat with Cc1c(F)cc(C(=O)NC2CC2)cc1-c1ccc(C(=O)NCC(C)(C)C)cn1 [LOSMAPIMOD] no (0)

Repeat with CC[C@H](Nc1ncnc2[nH]cnc12)c1nc2cccc(F)c2c(=O)n1-c1ccccc1 [IDELALISIB] no (0)

Repeat with COc1cc(CCc2cc(NC(=O)c3ccc(N4C[C@@H](C)N[C@@H](C)C4)cc3)n[nH]2)cc(OC)c1 [AZD-4547] no (0)

Repeat with CNC(=O)c1ccc(-c2cnc3ncc(Cc4ccc5ncccc5c4)n3n2)cc1F [CAPMATINIB] no (0)

Repeat with CN1N=C(N)c2cn([C@@H]3O[C@H](COP(=O)(O)O)[C@@H](O)[C@H]3O)c3ncnc1c23 [TRICIRIBINE PHOSPHATE] no (0)

Repeat with C[C@@H](Nc1cc(F)cc(F)c1)c1cc(C(=O)N(C)C)cc2c(=O)cc(N3CCOCC3)oc12 [AZD-8186] no (0)

Repeat with Cc1cc2c(F)c(Oc3ncnn4cc(OC[C@@H](C)OC(=O)[C@H](C)N)c(C)c34)ccc2[nH]1 [BRIVANIB ALANINATE] no (0)

Repeat with CC(=O)Nc1cccc(-n2c(=O)n(C3CC3)c(=O)c3c(Nc4ccc(I)cc4F)n(C)c(=O)c(C)c32)c1 [TRAMETINIB] no (0)

----------
# TESTED SYSTEM: Mitogen-activated protein kinase kinase kinase kinase 5 (Homo sapiens, UniProt Q9Y4K4); further: in the data inactive means no Kd found up to 30 µM
# Sequence (Q9Y4K4 whole entry): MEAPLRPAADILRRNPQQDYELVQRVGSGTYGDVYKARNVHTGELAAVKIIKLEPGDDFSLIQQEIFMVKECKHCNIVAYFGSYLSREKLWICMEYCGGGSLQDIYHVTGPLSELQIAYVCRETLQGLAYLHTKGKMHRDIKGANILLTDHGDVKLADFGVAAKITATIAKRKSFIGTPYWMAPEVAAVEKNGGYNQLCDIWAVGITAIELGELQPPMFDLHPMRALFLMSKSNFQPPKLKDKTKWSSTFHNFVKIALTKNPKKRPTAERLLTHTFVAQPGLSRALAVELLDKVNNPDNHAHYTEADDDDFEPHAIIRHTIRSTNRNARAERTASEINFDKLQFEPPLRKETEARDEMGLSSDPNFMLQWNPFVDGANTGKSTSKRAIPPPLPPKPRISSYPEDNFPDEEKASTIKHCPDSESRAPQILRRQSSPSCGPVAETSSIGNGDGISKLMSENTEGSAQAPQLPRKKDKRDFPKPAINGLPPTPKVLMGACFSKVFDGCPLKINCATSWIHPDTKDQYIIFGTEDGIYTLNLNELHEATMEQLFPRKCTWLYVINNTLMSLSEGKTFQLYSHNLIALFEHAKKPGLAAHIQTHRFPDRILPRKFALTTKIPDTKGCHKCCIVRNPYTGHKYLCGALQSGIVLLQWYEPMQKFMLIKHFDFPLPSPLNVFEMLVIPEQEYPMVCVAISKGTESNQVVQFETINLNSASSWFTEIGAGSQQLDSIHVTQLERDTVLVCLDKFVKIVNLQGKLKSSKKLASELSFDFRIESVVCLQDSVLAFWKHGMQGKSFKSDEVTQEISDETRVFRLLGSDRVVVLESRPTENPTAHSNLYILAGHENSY
Active and inactive are the calls of the source.
Mark one answer only. Choices: true (1) (active), false (0) (inactive)

For Cc1cc([C@@H](C)Nc2ccccc2C(=O)O)c2nc(N3CCOCC3)cc(=O)n2c1 , which call appears in the assay record? false (0)

Repeat with C[C@@H](Nc1cc(F)cc(F)c1)c1cc(C(=O)N(C)C)cc2c(=O)cc(N3CCOCC3)oc12 false (0)

Repeat with CC[C@@H]1C(=O)N(C)c2cnc(Nc3ccc(C(=O)N[C@H]4CC[C@H](N5CCN(CC6CC6)CC5)CC4)cc3OC)nc2N1C(C)C false (0)

Repeat with CNC(=O)CN1CCC(Oc2cc3c(Nc4cccc(Cl)c4F)ncnc3cc2OC)CC1 false (0)

Repeat with O=C1NC(=O)/C(=C/c2ccc3nccc(-c4ccncc4)c3c2)S1 false (0)

Repeat with Cc1c(F)cc(C(=O)NC2CC2)cc1-c1ccc(C(=O)NCC(C)(C)C)cn1 false (0)

Repeat with CCCS(=O)(=O)Nc1ccc(F)c(C(=O)c2c[nH]c3ncc(-c4ccc(Cl)cc4)cc23)c1F true (1)

Repeat with CCS(=O)(=O)N1CC(CC#N)(n2cc(-c3ncnc4[nH]ccc34)cn2)C1 false (0)
